# system_name: T1, cynomolgus monkey E-selectin extracellular domain with 10 His purification tail (cynomolgus monkey, UniProt P16581 22-554 (human entry))
# T1 construct: also called cynomolgus E-selectin; truncated cynomolgus monkey E-selectin
# T1 chain: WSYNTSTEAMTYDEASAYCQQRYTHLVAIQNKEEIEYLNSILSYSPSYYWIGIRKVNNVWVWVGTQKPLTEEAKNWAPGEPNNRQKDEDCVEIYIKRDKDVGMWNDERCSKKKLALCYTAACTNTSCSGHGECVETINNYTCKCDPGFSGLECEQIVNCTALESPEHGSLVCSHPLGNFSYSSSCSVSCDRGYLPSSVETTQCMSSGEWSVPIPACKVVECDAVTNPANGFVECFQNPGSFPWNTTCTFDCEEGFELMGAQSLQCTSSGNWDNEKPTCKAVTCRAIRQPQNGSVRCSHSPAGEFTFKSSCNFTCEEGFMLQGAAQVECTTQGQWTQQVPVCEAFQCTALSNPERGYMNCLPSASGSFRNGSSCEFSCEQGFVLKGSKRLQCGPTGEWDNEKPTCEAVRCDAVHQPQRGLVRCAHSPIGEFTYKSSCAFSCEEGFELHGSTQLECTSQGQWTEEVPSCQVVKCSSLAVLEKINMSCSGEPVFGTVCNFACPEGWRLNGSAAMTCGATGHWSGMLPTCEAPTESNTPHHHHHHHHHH
# test: SPR, antibody captured, E-selectin analyte
quantity_name: koff (s⁻¹)
Give your result in s⁻¹ as a bare value.

The following binders have reported results that may help.
[[record]]
binder = "optimized anti-E-selectin antibody 1284 (antibody, human IgG1, kappa, V domains shown, effector-null human IgG1, kappa) VH: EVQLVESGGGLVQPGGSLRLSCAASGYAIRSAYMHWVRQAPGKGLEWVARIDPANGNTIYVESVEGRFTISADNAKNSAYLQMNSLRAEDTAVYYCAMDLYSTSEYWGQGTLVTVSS VL: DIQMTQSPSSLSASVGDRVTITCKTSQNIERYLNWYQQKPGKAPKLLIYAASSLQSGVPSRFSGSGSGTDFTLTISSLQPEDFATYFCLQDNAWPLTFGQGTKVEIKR"
value_reported = 0.018

[[record]]
binder = "optimized anti-E-selectin antibody 1444 (antibody, human IgG1, kappa, V domains shown, effector-null human IgG1, kappa) VH: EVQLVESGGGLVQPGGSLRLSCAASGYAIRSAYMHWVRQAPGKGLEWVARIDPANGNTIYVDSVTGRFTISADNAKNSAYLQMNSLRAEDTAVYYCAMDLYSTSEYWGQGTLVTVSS VL: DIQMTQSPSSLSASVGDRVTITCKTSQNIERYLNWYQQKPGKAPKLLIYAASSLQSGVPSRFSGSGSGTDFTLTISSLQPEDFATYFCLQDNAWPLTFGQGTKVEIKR"
value_reported = 0.0171

[[record]]
binder = "optimized anti-E-selectin antibody 1448 (antibody, human IgG1, kappa, V domains shown, effector-null human IgG1, kappa) VH: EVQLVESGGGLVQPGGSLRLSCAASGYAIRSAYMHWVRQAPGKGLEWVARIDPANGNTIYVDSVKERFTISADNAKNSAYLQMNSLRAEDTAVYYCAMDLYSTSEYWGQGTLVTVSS VL: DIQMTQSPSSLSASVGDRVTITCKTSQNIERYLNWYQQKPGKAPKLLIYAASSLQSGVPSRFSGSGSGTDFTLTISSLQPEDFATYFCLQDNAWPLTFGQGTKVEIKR"
value_reported = 0.015


Turning now to a further record.
What the record says about optimized anti-E-selectin antibody 1282 (antibody, human IgG1, kappa, V domains shown, effector-null human IgG1, kappa) VH: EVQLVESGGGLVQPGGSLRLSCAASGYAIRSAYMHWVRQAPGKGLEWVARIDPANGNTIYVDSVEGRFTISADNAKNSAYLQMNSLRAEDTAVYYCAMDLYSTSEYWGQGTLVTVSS VL: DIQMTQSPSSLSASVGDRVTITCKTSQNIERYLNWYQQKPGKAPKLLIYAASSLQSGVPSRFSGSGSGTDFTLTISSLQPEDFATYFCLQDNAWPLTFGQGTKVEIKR : koff is 0.0176

The measured values listed here are drawn from patent US20240076386A1.
